Data origin, for the record: the supplement of paper PMC10307832

Tested on: NCI-H650
Assay: relative viability (nuclei count vs DMSO), 5 days (fraction); higher = more cells survive
Conditions: first compound 4 µM
reported property: relative viability
Hey, just send me the number, nothing else.

Quick one: give measured relative viability for COc1cc(N2CCC(C(N)=O)CC2)ccc1Nc1nc(N)c(Cl)c(Nc2ccccc2S(=O)(=O)C(C)C)n1 [HG-5-88-01] + COc1cc2c(Oc3ccc(NC(=O)C4(C(=O)Nc5ccc(F)cc5)CC4)cc3F)ccnc2cc1OCCCN1CCOCC1 [Foretinib] (partner 0.25 µM)
0.719

Quick one: give measured relative viability for COc1cc(N2CCC(C(N)=O)CC2)ccc1Nc1nc(N)c(Cl)c(Nc2ccccc2S(=O)(=O)C(C)C)n1 [HG-5-88-01] + COc1cccc2cc(-c3nc([C@H]4CC[C@H](C(=O)O)CC4)n4ncnc(N)c34)[nH]c12 [OSI-027] (partner 0.5 µM)
0.319

Respond only with relative viability recorded for C[C@@H]1CN(CC(=O)Nc2ccc3c(c2)Cc2cccc(-c4cc(=O)cc(N5CCOCC5)o4)c2S3)C[C@H](C)O1 + O=C(c1cc(Cc2n[nH]c(=O)c3ccccc23)ccc1F)N1CCN(C(=O)C2CC2)CC1 [Olaparib] (partner 8 µM)
0.258

State its relative viability for this compound: Clc1ccc(Nc2nnc(Cc3ccncc3)c3ccccc23)cc1 [Vatalanib] + Cc1nc(Nc2ncc(C(=O)Nc3c(C)cccc3Cl)s2)cc(N2CCN(CCO)CC2)n1 [Dasatinib] (partner 0.075 µM)
0.434

----------
For each of the compounds below, state its relative viability.
Test system: HARA
Test: relative viability (nuclei count vs DMSO), 5 days (fraction); higher = more cells survive
Details: first compound 0.4 µM
Answer using only a numeral; do not append any unit.

Identify the reported relative viability for the following entry. COc1cc(N2CCC(C(N)=O)CC2)ccc1Nc1nc(N)c(Cl)c(Nc2ccccc2S(=O)(=O)C(C)C)n1 [HG-5-88-01] + N=C(N)NC(=N)NCCc1ccccc1 [Phenformin] (partner 250 µM)
0.48

Look up and state reported relative viability for C[C@@H]1CN(CC(=O)Nc2ccc3c(c2)Cc2cccc(-c4cc(=O)cc(N5CCOCC5)o4)c2S3)C[C@H](C)O1 + CC(C)C[C@H](NC(=O)[C@H](Cc1ccccc1)NC(=O)c1cnccn1)B(O)O [Bortezomib] (partner 0.002 µM)
1.09

Report relative viability, nothing else, for this compound: C[C@@H]1CN(CC(=O)Nc2ccc3c(c2)Cc2cccc(-c4cc(=O)cc(N5CCOCC5)o4)c2S3)C[C@H](C)O1 + O=C(c1cc(Cc2n[nH]c(=O)c3ccccc23)ccc1F)N1CCN(C(=O)C2CC2)CC1 [Olaparib] (partner 8 µM)
0.87

In one line, give reported relative viability of the entry Clc1ccc(Nc2nnc(Cc3ccncc3)c3ccccc23)cc1 [Vatalanib] + O=C(c1cc(Cc2n[nH]c(=O)c3ccccc23)ccc1F)N1CCN(C(=O)C2CC2)CC1 [Olaparib] (partner 8 µM) .
0.875

----------
Test system: EPLC-272H
Experiment: relative viability (nuclei count vs DMSO), 5 days (fraction); higher = more cells survive
Settings: first compound 4 µM
reported property: relative viability
Answer with a number only.

Give the value of relative viability reported for the following: COc1cc(N2CCC(C(N)=O)CC2)ccc1Nc1nc(N)c(Cl)c(Nc2ccccc2S(=O)(=O)C(C)C)n1 [HG-5-88-01] + Cc1nc(NC(=O)N2CCC[C@H]2C(N)=O)sc1-c1ccnc(C(C)(C)C(F)(F)F)c1 [Alpelisib] (partner 2 µM)
0.253

Indicate the recorded relative viability value for this compound: C[C@@H]1CN(CC(=O)Nc2ccc3c(c2)Cc2cccc(-c4cc(=O)cc(N5CCOCC5)o4)c2S3)C[C@H](C)O1 + C[C@]1(O)C[C@@H](c2nc(-c3ccc4ccc(-c5ccccc5)nc4c3)c3c(N)nccn32)C1 [Linsitinib] (partner 1 µM)
1.36

Note relative viability for the compound shown: COc1cc(N2CCC(C(N)=O)CC2)ccc1Nc1nc(N)c(Cl)c(Nc2ccccc2S(=O)(=O)C(C)C)n1 [HG-5-88-01] + CCNC(=O)c1noc(-c2cc(C(C)C)c(O)cc2O)c1-c1ccc(CN2CCOCC2)cc1 [Luminespib] (partner 0.01 µM)
0.204

Using the record for Clc1ccc(Nc2nnc(Cc3ccncc3)c3ccccc23)cc1 [Vatalanib] + CC1(C)CCC(c2ccc(Cl)cc2)=C(CN2CCN(c3ccc(C(=O)NS(=O)(=O)c4ccc(N[C@H](CCN5CCOCC5)CSc5ccccc5)c(S(=O)(=O)C(F)(F)F)c4)cc3)CC2)C1 [Navitoclax] (partner 0.5 µM) , state its measured relative viability.
1.13

Give me measured relative viability, please, for this compound: C[C@@H]1CN(CC(=O)Nc2ccc3c(c2)Cc2cccc(-c4cc(=O)cc(N5CCOCC5)o4)c2S3)C[C@H](C)O1 + CS(=O)(=O)CCNCc1ccc(-c2ccc3ncnc(Nc4ccc(OCc5cccc(F)c5)c(Cl)c4)c3c2)o1 [Lapatinib] (partner 2 µM)
0.783

Give the measured relative viability for COc1cc(N2CCC(C(N)=O)CC2)ccc1Nc1nc(N)c(Cl)c(Nc2ccccc2S(=O)(=O)C(C)C)n1 [HG-5-88-01] + CS(=O)(=O)N1CCN(Cc2cc3nc(-c4cccc5[nH]ncc45)nc(N4CCOCC4)c3s2)CC1 [Pictilisib] (partner 1 µM)
0.0916

For the compound C[C@@H]1CN(CC(=O)Nc2ccc3c(c2)Cc2cccc(-c4cc(=O)cc(N5CCOCC5)o4)c2S3)C[C@H](C)O1 + CS(=O)(=O)N1CCN(Cc2cc3nc(-c4cccc5[nH]ncc45)nc(N4CCOCC4)c3s2)CC1 [Pictilisib] (partner 1 µM) , give its reported relative viability.
0.289

For Clc1ccc(Nc2nnc(Cc3ccncc3)c3ccccc23)cc1 [Vatalanib] + CS(=O)(=O)CCNCc1ccc(-c2ccc3ncnc(Nc4ccc(OCc5cccc(F)c5)c(Cl)c4)c3c2)o1 [Lapatinib] (partner 2 µM) , write its relative viability.
1.01

----------
Tested on: NCI-H441
Test: relative viability (nuclei count vs DMSO), 5 days (fraction); higher = more cells survive
Conditions: first compound 0.1265 µM
Could you please report measured relative viability for the items listed next?

Please give measured relative viability of the following entry: C[C@@H]1CN(CC(=O)Nc2ccc3c(c2)Cc2cccc(-c4cc(=O)cc(N5CCOCC5)o4)c2S3)C[C@H](C)O1 + NC(=O)Nc1cc(-c2cccc(F)c2)sc1C(=O)N[C@H]1CCCNC1 [AZD7762] (partner 0.2 µM)
1.16

Read off the recorded relative viability for C[C@@H]1CN(CC(=O)Nc2ccc3c(c2)Cc2cccc(-c4cc(=O)cc(N5CCOCC5)o4)c2S3)C[C@H](C)O1 + CCNC(=O)c1noc(-c2cc(C(C)C)c(O)cc2O)c1-c1ccc(CN2CCOCC2)cc1 [Luminespib] (partner 0.01 µM)
0.354

Supply reported relative viability belonging to this molecule: C[C@@H]1CN(CC(=O)Nc2ccc3c(c2)Cc2cccc(-c4cc(=O)cc(N5CCOCC5)o4)c2S3)C[C@H](C)O1 + COc1cc2c(Oc3ccc(NC(=O)C4(C(=O)Nc5ccc(F)cc5)CC4)cc3F)ccnc2cc1OCCCN1CCOCC1 [Foretinib] (partner 0.25 µM)
0.978

Give reported relative viability value for C[C@@H]1CN(CC(=O)Nc2ccc3c(c2)Cc2cccc(-c4cc(=O)cc(N5CCOCC5)o4)c2S3)C[C@H](C)O1 + Nc1ncn([C@H]2C[C@H](O)[C@@H](CO)O2)c(=O)n1 [Decitabine] (partner 2 µM)
0.222

----------
Tested on: NCI-H322M
Experiment: relative viability (nuclei count vs DMSO), 5 days (fraction); higher = more cells survive
Conditions: first compound 0.4 µM
reported property: relative viability
Number only, please.

Supply reported relative viability belonging to this compound: COc1cc(N2CCC(C(N)=O)CC2)ccc1Nc1nc(N)c(Cl)c(Nc2ccccc2S(=O)(=O)C(C)C)n1 [HG-5-88-01] + Cc1nc(NC(=O)N2CCC[C@H]2C(N)=O)sc1-c1ccnc(C(C)(C)C(F)(F)F)c1 [Alpelisib] (partner 2 µM)
0.903

Using known records, supply relative viability for Clc1ccc(Nc2nnc(Cc3ccncc3)c3ccccc23)cc1 [Vatalanib] + CC1(C)CCC(c2ccc(Cl)cc2)=C(CN2CCN(c3ccc(C(=O)NS(=O)(=O)c4ccc(N[C@H](CCN5CCOCC5)CSc5ccccc5)c(S(=O)(=O)C(F)(F)F)c4)cc3)CC2)C1 [Navitoclax] (partner 0.5 µM)
1.27

----------
System: NCI-H2023
Assay: relative viability (nuclei count vs DMSO), 5 days (fraction); higher = more cells survive
Conditions: first compound 0.08 µM
reported property: relative viability
Please state the value as a number alone, without comment.

Look up relative viability of CCCCCCCCCCCC1=C(O)C(=O)C=C(O)C1=O [Embelin] + CS(=O)(=O)CCNCc1ccc(-c2ccc3ncnc(Nc4ccc(OCc5cccc(F)c5)c(Cl)c4)c3c2)o1 [Lapatinib] (partner 2 µM) and report it.
0.837

For the compound CCCCCCCCCCCC1=C(O)C(=O)C=C(O)C1=O [Embelin] + CS(=O)(=O)N1CCN(Cc2cc3nc(-c4cccc5[nH]ncc45)nc(N4CCOCC4)c3s2)CC1 [Pictilisib] (partner 1 µM) , report relative viability.
0.269

Give me measured relative viability, please, for this compound: CCCCCCCCCCCC1=C(O)C(=O)C=C(O)C1=O [Embelin] + C[C@]1(O)C[C@@H](c2nc(-c3ccc4ccc(-c5ccccc5)nc4c3)c3c(N)nccn32)C1 [Linsitinib] (partner 1 µM)
0.707

# return recorded relative viability for input CCCCCCCCCCCC1=C(O)C(=O)C=C(O)C1=O [Embelin] + O=C(c1cc(Cc2n[nH]c(=O)c3ccccc23)ccc1F)N1CCN(C(=O)C2CC2)CC1 [Olaparib] (partner 8 µM)
0.432

Name the recorded relative viability of the item CCCCCCCCCCCC1=C(O)C(=O)C=C(O)C1=O [Embelin] + Cc1cc(Nc2cc(N3CCN(C)CC3)nc(Sc3ccc(NC(=O)C4CC4)cc3)n2)n[nH]1 [Tozasertib] (partner 0.1 µM) in your answer.
0.412
